- Tested on: cotton event pDAB4468.19.10.3 (aad-12)
- experimental_protocol: Tolerance to butanoic acids of triclopyr and fluroxypyr in greenhouse trials (% injury)
- Type: in vivo, Gossypium hirsutum
- reported_conditions: 280 g ai/ha, 6 DAA, 2-3 leaf stage
Recorded measurements of % Injury, one per entry
measure_name: % Injury (a %)

{"item_smiles": "O=C(O)COc1nc(Cl)c(Cl)cc1Cl", "val": 0.5}
{"item_smiles": "O=C(O)CCCOc1nc(Cl)c(Cl)cc1Cl", "val": 2.8}
{"item_smiles": "Nc1c(Cl)c(F)nc(OCC(=O)O)c1Cl", "val": 11.5}

====

Recorded measurements of % Injury, one per entry
- Tested on: non-transformed Coker 310 variety of cotton (WT)
- experimental_protocol: Butanoic acids of triclopyr and fluroxypyr greenhouse trials, negative control plants (% injury)
- Type: in vivo, Gossypium hirsutum
- reported_conditions: 140 g ai/ha, 14 DAA, 2-3 leaf stage

{"compound": "Nc1c(Cl)c(F)nc(OCC(=O)O)c1Cl [Fluroxypyr, fluroxypyr]", "system": "non-transformed Coker 310 variety of cotton (WT)", "% Injury / ab %": 60}
{"compound": "O=C(O)COc1nc(Cl)c(Cl)cc1Cl [Triclopyr, triclopyr]", "system": "non-transformed Coker 310 variety of cotton (WT)", "% Injury / ab %": 56.3}

====

- System: cotton event pDAB4468.19.10.3 (aad-12)
- experimental_protocol: Tolerance to butanoic acids of triclopyr and fluroxypyr in greenhouse trials (% injury)
- Format: in vivo, Gossypium hirsutum
- reported_conditions: 560 g ai/ha, 1 DAA, 2-3 leaf stage

{"compound": "Nc1c(Cl)c(F)nc(OCCCC(=O)O)c1Cl [Fluroxypyr-b, fluroxypyr-B]", "value_units": "b %", "% Injury": 3.5}
{"compound": "O=C(O)CCCOc1nc(Cl)c(Cl)cc1Cl [Triclopyr-b, triclopyr-B]", "value_units": "b %", "% Injury": 2.8}

====

Recorded measurements of % Injury, one per entry
- Tested on: cotton event pDAB4468.19.10.3 (aad-12)
- experimental_protocol: Tolerance to butanoic acids of triclopyr and fluroxypyr in greenhouse trials (% injury)
- Assay type: in vivo, Gossypium hirsutum
- reported_conditions: 560 g ai/ha, 14 DAA, 2-3 leaf stage
measure_name: % Injury

{"compound": "Nc1c(Cl)c(F)nc(OCC(=O)O)c1Cl [Fluroxypyr, fluroxypyr]", "system": "cotton event pDAB4468.19.10.3 (aad-12)", "val": "25a %"}
{"compound": "O=C(O)CCCOc1nc(Cl)c(Cl)cc1Cl [Triclopyr-b, triclopyr-B]", "system": "cotton event pDAB4468.19.10.3 (aad-12)", "val": "0a %"}
{"compound": "O=C(O)COc1nc(Cl)c(Cl)cc1Cl [Triclopyr, triclopyr]", "system": "cotton event pDAB4468.19.10.3 (aad-12)", "val": "0a %"}
{"compound": "Nc1c(Cl)c(F)nc(OCCCC(=O)O)c1Cl [Fluroxypyr-b, fluroxypyr-B]", "system": "cotton event pDAB4468.19.10.3 (aad-12)", "val": "2c %"}

====

Recorded measurements of % Injury, one per entry
- Tested on: cotton event pDAB4468.19.10.3 (aad-12)
- experimental_protocol: Tolerance to butanoic acids of triclopyr and fluroxypyr in greenhouse trials (% injury)
- Format: in vivo, Gossypium hirsutum
- reported_conditions: 280 g ai/ha, 1 DAA, 2-3 leaf stage

{"item_smiles": "O=C(O)COc1nc(Cl)c(Cl)cc1Cl", "% Injury": "8a %"}
{"item_smiles": "Nc1c(Cl)c(F)nc(OCC(=O)O)c1Cl", "% Injury": "19.8a %"}
{"item_smiles": "O=C(O)CCCOc1nc(Cl)c(Cl)cc1Cl", "% Injury": "2b %"}
{"item_smiles": "Nc1c(Cl)c(F)nc(OCCCC(=O)O)c1Cl", "% Injury": "2b %"}
